# test_target: human PAD4 (hPAD4) (Homo sapiens (Human))
# Sequence (Q9UM07 whole entry): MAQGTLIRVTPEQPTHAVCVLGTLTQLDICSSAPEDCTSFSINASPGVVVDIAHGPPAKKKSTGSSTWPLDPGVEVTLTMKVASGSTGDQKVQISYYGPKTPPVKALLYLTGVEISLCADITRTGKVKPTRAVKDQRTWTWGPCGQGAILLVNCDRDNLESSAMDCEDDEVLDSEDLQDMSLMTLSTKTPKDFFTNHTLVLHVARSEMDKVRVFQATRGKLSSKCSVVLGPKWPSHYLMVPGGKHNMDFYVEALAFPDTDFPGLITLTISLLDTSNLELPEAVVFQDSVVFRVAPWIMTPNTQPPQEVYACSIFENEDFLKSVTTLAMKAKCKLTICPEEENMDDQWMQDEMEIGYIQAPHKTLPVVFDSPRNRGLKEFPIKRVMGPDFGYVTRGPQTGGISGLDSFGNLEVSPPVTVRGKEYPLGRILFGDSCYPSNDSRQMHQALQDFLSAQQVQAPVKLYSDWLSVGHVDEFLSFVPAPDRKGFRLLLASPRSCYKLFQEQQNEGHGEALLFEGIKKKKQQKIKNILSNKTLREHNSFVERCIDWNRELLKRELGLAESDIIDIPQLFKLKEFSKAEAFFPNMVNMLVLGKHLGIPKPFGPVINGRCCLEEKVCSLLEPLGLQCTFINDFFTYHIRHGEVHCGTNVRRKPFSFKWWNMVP
# protocol_details: RFMS Human PAD4 Functional Assay
# condition_description: rapid-fire mass spectrum (RFMS) assay; 5 nM hPAD4 enzyme, 250 μM BAEE, 30 min preincubation at 37° C.
Response field label: string, one of True (IC50 strictly below 30 nM) or False.

// below: answered compounds
{"columns": ["compound", "class_assignment"],
 "data": [
  ["COc1cc(C(=O)N2C[C@H](N)C[C@@H](F)C2)cc2nc3n(c12)Cc1cnn(c1)-c1ccccc1OCCCn1c-3cc2ccccc21", "True"],
  ["COc1cc(C(=O)N2C[C@H]3CC[C@@H]2[C@@H]3N)cc2nc3n(c12)Cc1cccc(c1)[C@@H]1CN(C)C[C@@H]1CCCCn1c-3cc2cccnc21", "False"],
  ["COc1cc(C(=O)N2C[C@H](N)C[C@@H](F)C2)cc2nc3n(c12)Cc1cc(F)cc(c1)-c1ccccc1CCCCn1c-3cc2cccnc21", "False"],
  ["COc1cc(C(=O)N2CC3CCC2[C@@H]3N)cc2nc3n(c12)Cc1ccn(n1)-c1ccccc1OCCCn1c-3cc2cccnc21 (stereo partly drawn)", "True"],
  ["COc1cc(C(=O)N2C[C@H](N)C[C@@H](F)C2)cc2nc3n(c12)Cc1cnn(c1)-c1ccccc1OCCCn1c-3cc2cccnc21", "False"]
]}

Query :: Given COc1cc(C(=O)N2CC3CCC2[C@@H]3N)cc2nc3n(c12)Cc1cnn(c1)CCCCCCn1c-3cc2cccnc21 (stereo partly drawn) , is recorded IC50 strictly lower than 30 nM?
Result :: False

Query :: Given `COc1cc(C(=O)N2C[C@H](N)C[C@@H](F)C2)cc2nc3n(c12)Cc1cnn(c1)CCCCCCCn1c-3cc2cccnc21` , is recorded IC50 strictly lower than 30 nM?
Result :: False

Query :: Given `COc1cc(C(=O)N2C[C@H](N)C[C@@H](F)C2)cc2nc3n(c12)Cc1cnn(c1)CCCCCCn1c-3cc2ccccc21` , is recorded IC50 strictly lower than 30 nM?
Result :: False

Query :: Given `COc1cc(C(=O)N2C[C@H](N)C[C@@H](F)C2)cc2nc3n(c12)Cc1cncc(c1)-c1ccccc1OCCCn1c-3cc2cccnc21` , is recorded IC50 strictly lower than 30 nM?
Result :: True

Query :: Given COc1cc(C(=O)N2C[C@H]3CC[C@@H]2[C@@H]3N)cc2nc3n(c12)CC1CC(=O)N(C1)c1ccccc1CCCCn1c-3cc2cccnc21 (single isomer, unassigned) [Example 37] , is recorded IC50 strictly lower than 30 nM?
Result :: True

Query :: Given `COc1cc(C(=O)N2C[C@H](N)C[C@@H](F)C2)cc2nc3n(c12)Cc1cnn(c1)CCCCCCn1c-3cc2cccnc21` , is recorded IC50 strictly lower than 30 nM?
Result :: False

Query :: Given COc1cc(C(=O)N2CC3CCC2[C@@H]3N)cc2nc3n(c12)Cc1cc(C(N)=O)cc(c1)-c1ccccc1CCCCn1c-3cc2cccnc21 (stereo partly drawn) , is recorded IC50 strictly lower than 30 nM?
Result :: False

Query :: Given COc1cc(C(=O)N2CC3CCC2[C@@H]3N)cc2nc3n(c12)Cc1cncc(c1)-c1ccccc1CCCCn1c-3cc2cccnc21 (stereo partly drawn) , is recorded IC50 strictly lower than 30 nM?
Result :: True

Query :: Given COc1cc(C(=O)N2CC3CCC2[C@@H]3N)cc2nc3n(c12)Cc1cnn(c1)CCCCCCn1c-3cc2ccccc21 (stereo partly drawn) [Example 12] , is recorded IC50 strictly lower than 30 nM?
Result :: False

---

# maps each entry to its IC50
# test_target: human PAD4 (hPAD4) (Homo sapiens (Human))
# protocol_details: RFMS Human PAD4 Functional Assay
# condition_description: rapid-fire mass spectrum (RFMS) assay; 5 nM hPAD4 enzyme, 250 μM BAEE, 30 min preincubation at 37° C.
The reply should be a number in nM, with the unit left off.

Below: 2 compounds and their reported IC50.
{"columns": ["compound", "recorded_metric", "value_measured"],
 "data": [
  ["COc1cc(C(=O)N2C[C@H](N)C[C@@H](F)C2)cc2nc3n(c12)Cc1cccc(c1)-c1ccccc1CCCCn1c-3cc2ccccc21", "IC50", 191],
  ["COc1cc(C(=O)N2CC3CCC2[C@@H]3N)cc2nc3n(c12)Cc1cccc(c1)/C=C\\CCCCn1c-3cc2cccnc21 (stereo in doubt)", "IC50", 44.9]
]}

Query :: Fill in reported IC50 for this entry: `COc1cc(C(=O)N2C[C@H]3CC[C@@H]2[C@@H]3N)cc2nc3n(c12)Cc1cccc(c1)CCCCCCn1c-3cc2cccnc21`
Result :: 49.7

Query :: Fill in reported IC50 for this entry: COc1cc(C(=O)N2CC3CCC2[C@@H]3N)cc2nc3n(c12)Cc1cnn(c1)CCCCCCCn1c-3cc2cccnc21 (stereo partly drawn)
Result :: 137

Query :: Fill in reported IC50 for this entry: `COc1cc(C(=O)N2C[C@H](N)C[C@@H](F)C2)cc2nc3n(c12)Cc1cc(C(N)=O)cc(c1)-c1ccccc1CCCCn1c-3cc2cccnc21`
Result :: 62

Query :: Fill in reported IC50 for this entry: COc1cc(C(=O)N2C[C@H](N)C[C@@H](F)C2)cc2nc3n(c12)Cc1cccc(c1)[C@H](O)[C@H](O)CCCCn1c-3cc2cccnc21 (single isomer, unassigned) [Example 49]
Result :: 292

---

# test_target: human PAD4 (hPAD4) (Homo sapiens (Human))
# protocol_details: RFMS Human PAD4 Functional Assay
# condition_description: rapid-fire mass spectrum (RFMS) assay; 5 nM hPAD4 enzyme, 250 μM BAEE, 30 min preincubation at 37° C.
Response field label: string, one of TRUE (IC50 strictly below 30 nM) or FALSE.

// below: answered compounds
{"columns": ["compound", "class_assignment"],
 "data": [
  ["COc1cc(C(=O)N2CC3CCC2[C@@H]3N)cc2nc3n(c12)Cc1cncc(c1)-c1ccccc1OCCCn1c-3cc2cccnc21 (some centres unmarked)", "TRUE"],
  ["COc1cc(C(=O)N2C[C@H]3CC[C@@H]2[C@@H]3N)cc2nc3n(c12)Cc1cccc(c1)C1[C@@H](CCCCn2c-3cc3cccnc32)C1(F)F (some centres unmarked)", "FALSE"],
  ["COc1cc(C(=O)N2CC3CCC2[C@@H]3N)cc2nc3n(c12)Cc1cnn(c1)-c1ccccc1OCCCn1c-3cc2ccccc21 (some centres unmarked)", "TRUE"],
  ["COc1cc(C(=O)N2CC3CCC2[C@@H]3N)cc2nc3n(c12)Cc1cnn(c1)CCCCCCCn1c-3cc2ccccc21 (some centres unmarked)", "FALSE"],
  ["COc1cc(C(=O)N2C[C@H](N)C[C@@H](F)C2)cc2nc3n(c12)Cc1cccc(c1)/C=C\\CCCCn1c-3cc2cccnc21", "FALSE"]
]}

Query :: Given COc1cc(C(=O)N2CC3CCC2[C@@H]3N)cc2nc3n(c12)Cc1cc(C#N)cc(c1)-c1ccccc1CCCCn1c-3cc2cccnc21 (some centres unmarked) , is recorded IC50 strictly lower than 30 nM?
Result :: FALSE

Query :: Given COc1cc(C(=O)N2C[C@H]3CC[C@@H]2[C@@H]3N)cc2nc3n(c12)CC1CC(=O)N(C1)c1ccccc1CCCCn1c-3cc2cccnc21 (single isomer, unassigned) [Example 38] , is recorded IC50 strictly lower than 30 nM?
Result :: FALSE

Query :: Given `COc1cc(C(=O)N2C[C@H](N)C[C@@H](F)C2)cc2nc3n(c12)Cc1cccc(c1)-c1ccccc1CCCCn1c-3cc2cccnc21` , is recorded IC50 strictly lower than 30 nM?
Result :: FALSE

---

# test_target: UniProt:Q9UM07
# protocol_details: RFMS Human PAD4 Functional Assay
# condition_description: rapid-fire mass spectrum (RFMS) assay; 5 nM hPAD4 enzyme, 250 μM BAEE, 30 min preincubation at 37° C.
recorded_metric: pIC50
The read-out pIC50 is expressed as -log10 of concentration in moles per litre.

{"columns": ["compound", "pIC50"],
 "data": [
  ["COc1cc(C(=O)N2CC3CCC2[C@@H]3N)cc2nc3n(c12)Cc1cnn(c1)CCCCCCn1c-3cc2ccccc21 (stereo partly drawn) [Example 4]", 7.62],
  ["COc1cc(C(=O)N2C[C@H](N)C[C@@H](F)C2)cc2nc3n(c12)Cc1cccc(c1)[C@H](O)[C@H](O)CCCCn1c-3cc2cccnc21 (single isomer, unassigned) [Example 50]", 6.08]
]}

Query :: Fill in reported pIC50 for this entry: `COc1cc(C(=O)N2C[C@H](N)C[C@@H](F)C2)cc2nc3n(c12)Cc1cccc(c1)-c1ccccc1OCCCn1c-3cc2cccnc21`
Result :: 6.92

Query :: Fill in reported pIC50 for this entry: COc1cc(C(=O)N2CC3CCC2[C@@H]3N)cc2nc3n(c12)Cc1cc(ccn1)-c1ccccc1CCCCn1c-3cc2cccnc21 (stereo partly drawn)
Result :: 6.95
